All values here come from patent US20190055322A1.

molecular target: recombinant PcrV protein (rPcrV), strain PAO1, amino acid residues 1-294, C-terminal His6 (Pseudomonas aeruginosa strain PAO1); assay: SPR ProteOn, periplasmic extract on immobilised rPcrV
PROPERTY LABEL: log10 koff (log10 of the value in s⁻¹)
Please interpret these as log10 of koff where koff is in s⁻¹.

Before answering, review these 8 worked examples.
[[record]]
binder = "Nanobody 3E10 (VHH) VHH: EVQLVESGGGLVQAGGSLRLSCTASGHTFSSYTMGWFRQAPGKEREFVAAMTRSGFNTHYSDSVKGRFTISRDNTSRDNTKITMALQMNSLKPEDTAVYYCTTGRGLTSYVANFWGQGTQVTVSS"
property_label = "log10 koff"
measured_value = -2.82

[[record]]
binder = "Nanobody 11B09 (VHH) VHH: EVQLVESGGGLVQAGGSLRLSCAASRLTFNHYNMGWFRQAPGKERERVAEVTWSGDKIYYVDSVKGRFTISRDNTPNPVYLYLQMNSLKPEDTAVYYCATAPRGLPYANGYWGQGTQVTVSS"
property_label = "log10 koff"
measured_value = -2.32

[[record]]
binder = "Nanobody 7E09 (VHH, also called 07E09) VHH: EVQLVESGGGLVQAGGSLRLSCAASGRTFSSYIMGWFRQAPGKAREFVADITWGQRPYYADSVKGRFTISRDNAKNTVYLEMNSLKPEDTAVYYCAADLGVVIREEHAYWGQGTLVTVSS"
property_label = "log10 koff"
measured_value = -3.40

[[record]]
binder = "Nanobody 2B02 (VHH) VHH: EVQLVESGGGLVQPGDSLRLSCAASGRILSINNMVWYRQAPGKQRELVAHITSSGSTGYADSVKGRFTISRDNAKNTFYLQMTNLNPEDTAVYYCNCWVSSDSNAPLKNYWGQGTQVTVSS"
property_label = "log10 koff"
measured_value = -3.43

[[record]]
binder = "Nanobody 7C10 (VHH) VHH: EVQLVESGGGLVQAGGSLRLSCTASGRTLSSYTMGWFRQAPGTEREFVAAMTRSGFNTYYADSVKGRFTISRDSTENTMALQMSSLKPEDTAVYYCTAGRGLTSYRADYWGQGTLVTVSS"
property_label = "log10 koff"
measured_value = -3.09

[[record]]
binder = "Nanobody 1E11 (VHH, also called 01E11) VHH: EVQLVESGGGLVQPGGSLRLSCAASGSTRSVNPMAWFRQAPGRQREWVATISRSGYATYADSVKGRFTISGDNAKSSVYLQMNSLKPEDTAVYYCVTGTYWGQGTLVTVSS"
property_label = "log10 koff"
measured_value = -3.46

[[record]]
binder = "Nanobody 10C05 (VHH) VHH: EVQLVESGGGLVQPGGSLRLSCAASGSIFSINTMGWYRQAPGKQRDLVASITMNQVPNYADSVQGRFTISRDNVRNTVHLQMNAVKPEDTADYFCNAWVRSSGASPYTNYWGQGTQVTVSS"
property_label = "log10 koff"
measured_value = -3.22

[[record]]
binder = "Nanobody 14E10 (VHH) VHH: EVQLVESGGGLVQPGGSLRLSCAASGRIFSINTMGWYRQAPGKQRELVAGVTINAITNYADSVKGRFTISRDNAKNTVWLQMNSLKPEDTAVYYCHAWARSSGSAPYSQNWGQGTQVTVSS"
property_label = "log10 koff"
measured_value = -3.22


INPUT: Reported log10 koff, binder Nanobody 14B10 (VHH) VHH: EVQLVESGGGLVQPGGSLRLSCAASGRIFSINNMGWYHQAPGKQRELVATITMNGITTYADSVKGRFTISRDNAKNTVYLQMNSLKPEDTAVYYCSCWVRSSGGDPYRDYWGQGTQVTVSS : ____
OUTPUT: -3.04

INPUT: // lookup log10 koff for Nanobody 5H01 (VHH, also called 05H01) VHH: EVQLVESGGGLVQPGGSLRLSCAASGSTLDYYAIGWFRQAPGKEREGVSCTSNSGSTYYGGSVKGRFTASRDNAKNTVYLQMNSLRPEDTAVYYCVATIGCATLGGTLDVQRYYYRGQGTQVTVSS
OUTPUT: -4.31
